Measured viability, T/C of individual entries
Test system: KRAS patient-derived spheroids with HUVEC/MSC, viability;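 also: spheroids exposed to agents for seven days before readout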
experiment: Anticancer human tumor 941728-121-R-J1-PDC patient-derived lung adenocarcinoma cell line growth inhibition [KRAS2]
stated-conditions: second compound 10 µM; first compound 1 µM; hits give low values
metric-name: viability, T/C (%)

>  <compound>
CC(=O)OC12COC1CC(O)C1(C)C(=O)C(O)C3=C(C)C(OC(=O)C(O)C(NC(=O)OC(C)(C)C)c4ccccc4)CC(O)(C(OC(=O)c4ccccc4)C21)C3(C)C (configuration not stated) + C=CC(=O)N1CCN(c2nc(=O)n(-c3c(C)ccnc3C(C)C)c3nc(-c4c(O)cccc4F)c(F)cc23)C(C)C1

>  <target-or-system>
KRAS patient-derived spheroids with HUVEC/MSC, viability;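 also: spheroids exposed to agents for seven days before readout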

>  <metric-name>
viability, T/C

>  <value-measured>
28.8

$$$$
>  <compound>
CC1(C)CCC(CN2CCN(c3ccc(C(=O)NS(=O)(=O)c4ccc(NCC5CCOCC5)c([N+](=O)[O-])c4)c(Oc4cnc5[nH]ccc5c4)c3)CC2)=C(c2ccc(Cl)cc2)C1 + C=CC(=O)N1CCN(c2nc(=O)n(-c3c(C)ccnc3C(C)C)c3nc(-c4c(O)cccc4F)c(F)cc23)C(C)C1

>  <target-or-system>
KRAS patient-derived spheroids with HUVEC/MSC, viability;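 also: spheroids exposed to agents for seven days before readout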

>  <metric-name>
viability, T/C

>  <value-measured>
22.4

$$$$
